# Tested on: OVCAR-3 ovarian
# PROTOCOL_SUMMARY: NCI-60 one-dose screen, 48 h
# CONDITIONS_USED: 10 µM unless noted
About 83,000 compounds went through this panel and 20% of them were active in at least one assay; those are over-represented in the sample as a whole. Active and inactive are the calls of the source. How the source made its calls: active means growth percent below 10; inactive means the rest.
Outcome codes: label 1 = active, label 0 = inactive

CCN1C(=O)N(CC)C2C1NN=c1s/c(=C3\C(=O)Nc4ccccc43)c(=O)n12 (stereo not given) : label 1
O=C(O)CNC(=O)CN1C(=O)c2ccccc2C1=O : label 0
COc1ccc(C(=O)c2cc3c(N)c(C(=O)Nc4cccc(Cl)c4)sc3nc2C)cc1 : label 1
CNC(=O)NCC1OC(n2cnc3c(NC(=O)Nc4ccccc4)ncnc32)C(O[Si](C)(C)C(C)(C)C)C1O[Si](C)(C)C(C)(C)C (stereo not given) : label 1
O=C(N/N=C/c1ccc(F)cc1)c1ccccc1Nc1cccc(C(F)(F)F)c1 : label 0

---

# System: OVCAR-5 ovarian
# PROTOCOL_SUMMARY: NCI-60 one-dose screen, 48 h (100 = growth as untreated, 0 = no growth, -100 = all killed)
# CONDITIONS_USED: 10 µM unless noted
This is part of a sample that, as a whole, favours compounds with a hit. Of some 83,000 tested, about 20% had one in any assay.
REPORTED_ENDPOINT: growth (%)

COc1cc(OC)c(/C=C/C(=O)c2ccc(Nc3ncnc4ccccc34)cc2)c(OC)c1 : 8.12
COc1cc(C2CC(c3cccc(Nc4ccncc4)c3)=NN2c2cc(Cl)cc(Cl)c2)cc(OC)c1OC (stereo not given) : 65.1
O=C(O)CNC(=O)CN1C(=O)c2ccccc2C1=O : 101
CCCCCCCC(=O)Nc1nc2[nH]c(CN3CCN(Cc4cccc(I)c4)CC3)c(CN3CCN(Cc4cccc(I)c4)CC3)c2c(=O)[nH]1 : -66.1
CC(=O)OCCCCCNc1ccccc1 : 97.5

---

growth reference
# System: UACC-257 melanoma
# PROTOCOL_SUMMARY: NCI-60 one-dose screen, 48 h (100 = growth as untreated, 0 = no growth, -100 = all killed)
# CONDITIONS_USED: 10 µM unless noted
Compounds without any hit were thinned out: in the full panel of roughly 83,000, 20% have a hit.
REPORTED_ENDPOINT: growth (%)

CCN(CC)CCCC(C)Nc1cc(-c2cccc(OC(F)(F)F)c2)nc2ccc(N3CCCC3)cc12 (stereo not given) : -81.1
O=C(Nc1ccc(F)cc1)c1c(NC(=O)C(F)(F)F)sc2c1CCCCC2 : -23.9
O=c1nc2n(nc1/C=C/c1ccco1)CC(c1ccc(Cl)cc1)=NN2 : 104
COc1cc(OC)c(/C=C/C(=O)c2ccc(Nc3ncnc4ccccc34)cc2)c(OC)c1 : -12
N#Cc1ccc(-c2ccc3c(c2)NC(=O)/C3=C\c2ccc[nH]2)cc1 : 112
CN1CCN(c2ccc(NC3=C(Cl)C(=O)c4ncccc4C3=O)cc2C#N)CC1 : -46.5
COc1ccc(C(=O)c2cc(C)c(OC)c(C)c2)c(OC)c1O : 50.6
COc1ccc(C2CC(c3cccc(Nc4ccncc4)c3)=NN2c2ccccc2)cc1 (stereo not given) : -35.6
COc1ccc(Cc2nc3cc(OC)c(OC)cc3c(=O)[nH]2)cc1 : 4.95
CN1CCN(CCCNc2nccc(-c3c(-c4ccc(F)c(O)c4)nc4sccn34)n2)S1(=O)=O : 33.8
